# TARGET OR TEST SYSTEM: T1, murine PILRB, ectopically expressed on 293 cells (murine, UniProt Q2YFS2 29-224)
# T1 construct: whole, on cells; also called mB
# T1 sequence (Q2YFS2 29-224): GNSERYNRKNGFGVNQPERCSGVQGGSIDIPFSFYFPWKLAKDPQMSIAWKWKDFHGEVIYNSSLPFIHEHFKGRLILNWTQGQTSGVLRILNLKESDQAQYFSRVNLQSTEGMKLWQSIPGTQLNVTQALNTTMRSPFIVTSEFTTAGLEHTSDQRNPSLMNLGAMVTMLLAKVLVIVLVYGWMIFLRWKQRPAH
# TEST: flow cytometry, 293 cells expressing target
RESULT TYPE: binding result

{"columns": ["BINDER", "binding result"],
 "data": [
  ["D6 (antibody, V domains shown, second hybridoma campaign; same VH/VL as D8) VH: EVQLQQSGPELVKPGASVKMSCKASGYTFTDYYMDWVKQSHGESFEWIGRVNPYTGDSSYNQKFKGKATLTVDKSSNTAYLEFNSLTSEGSAVYYCARSDGYHYKYAMDYWGQGTSVTVSS VL: DVVMTQTPLSLPVSLGDQASISCRSSQSLVHSTGNTYLHWYLQKPGQSPNLLIYKISNRFSGVPDRFSGSGSGTDFTLKISRVEAEDLGVYFCSQSTHVPYTFGGGTKLEIK", "no binding"],
  ["E7 (antibody, V domains shown, phage campaign) VH: EVQLLESGGGLVKPGGSLRLSCAASGFTFSSYWMSWVRQAPGKGLEWVSAISGSGGSTYYADSVKGRFTISRDDSKNTLYLQMNSLKTEDTAVYYCARHEEVTMVRGVIFAGGITNWGQGTTVTVSS VL: EIVMTQSPATLSVSPGERATLSCRASESVTSSYLAWYQQKPGQAPRLLIYGASTRATGIPARFSGSGSGTEFTLTISSLQSEDFAVYYCQQYGSSPLTFGGGTKVEIK", "no binding"],
  ["E1 (antibody, V domains shown, second hybridoma campaign) VH: EVQLVESGGGLVQPGESLKLSCESNEYEFPSHDMSWVRKTPEKRLELVAAINSDGGSTYYPDTMERRFIISRDNTKKTLYLQMSSLRSEDTALYYCARQLMGTGAMDYWGQGTSVTVSS VL: DIQMTQSSSYLSVSLGGRVTITCKASDHINNWLAWYQQKPGNAPRLLISGATSLETGVPSRFSGSGSGKDYTLSITSLQTEDVATYYCQQYWSTPYTFGGGTKLEIK", "no binding"],
  ["E15 (antibody, V domains shown, B-cell cloning campaign (mice)) VH: QVQLQQSGAELVKPGASVKLSCKASGNTFTIYDINWVRQRPEQGLEWIGWIFPGDGSTKYNGKFKGKATLTTDKSSSTAYMQLSRLTSEDSAVYFCARRAHYYGSSFDYWGQGTTLTVSS VL: DIQMTQSSSYLSVSLGGRVTITCKASDHINNWLAWYQQKPGNGPRLLISGAISLEIGVPSRFSGSGSGKEYTLSITSLQTEDVATYYCQQYWSPPWTFGGGTKLEIK", "no binding"]
]}

What does the data say about its binding result? Entry: A4 (antibody, V domains shown, phage campaign) VH: QVQLVQSGAEVKKPGSSVKVSCKASGYTFTGYAVNWVRQAPGQGLEWMGGIIPIFGTANYAQKFQGRVTITADESTSTAYMELSSLRSEDTAVYYCARNLGYSSGWSGYYYGMDVWGQGTMVTVSS VL: EIVMTQSPATLSVSPGERATLSCRASQSVSSNYLAWYQQKPGQAPRLLIYGASTRATGIPARFSGSGSGTEFTLTISSLQSEDFAVYYCQQYGSSSFTFGPGTKLEIK
no binding
